Target: T1, 4H3041-bA
T1 chain: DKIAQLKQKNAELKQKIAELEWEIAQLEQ
Test: two-hybrid library CCNG1;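 further: natural log of median RNA to DNA barcode read ratio; higher means stronger binding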

# binder, interaction score
data = [
    ("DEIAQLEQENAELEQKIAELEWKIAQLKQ [4H166-bA]", 1.54),
    ("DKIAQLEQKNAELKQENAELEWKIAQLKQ [4H2518-bA]", 0.486),
    ("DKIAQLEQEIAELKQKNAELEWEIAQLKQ [4H2162-bA]", 1.37),
    ("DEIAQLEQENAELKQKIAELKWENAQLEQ [4H235-bA]", 0.563),
    ("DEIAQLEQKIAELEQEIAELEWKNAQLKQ [4H264-bA]", 2.21),
    ("DKIAQLKQEIAELEQENAELKWEIAQLEQ [4H2585-bA]", 0.083),
    ("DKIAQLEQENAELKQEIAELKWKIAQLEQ [4H2253-bA]", 0.651),
]

Ref: paper PMC10397247
